# normalised cell number annotations
Assay: differential killing of epithelial or mesenchymal cells, primary screen, imaging, PC-3E GFP, TEM4-18 mCherry, co-culture (AID 1345086);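 note: cells exposed to compound for 72 h before imaging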
Conditions: imaging cell counts, measured here: mesenchymal TEM4-18 mCherry cell survival, at 1 µM
property-measured: normalised cell number

INSERT INTO measurements (compound, numeric_result) VALUES
  ('CC(=O)C1C(=O)C=C(C)OC1=O (stereo not given)', 1.07),
  ('C[C@@H]1O[C@@H](OC[C@H]2OC(Oc3c(-c4ccc(O)c(O)c4)oc4cc(O)cc(O)c4c3=O)[C@H](O)[C@@H](O)[C@@H]2O)[C@H](O)[C@H](O)[C@H]1O (stereo not given in full)', 0.99),
  ('C=C1OC(=O)C23C1OC(CC(O)C2O)C3C (stereo not given)', 1.14),
  ('CC1(O)CCOC(=O)C1 (stereo not given)', 1.02),
  ('CC(CCC(=O)O)[C@H]1CCC2C3CC[C@@H]4CCCC[C@]4(C)C3CC[C@@]21C (stereo not given in full)', 1.04),
  ('CC(Cc1ccc(O)c(O)c1)(NN)C(=O)O (stereo not given)', 1.3),
  ('NC[C@H]1O[C@H](O[C@H]2C(O[C@@H]3O[C@H](CO)[C@@H](O)[C@H]3O)[C@@H](O)[C@H](N)C[C@@H]2N)[C@H](N)[C@@H](O)[C@@H]1O (stereo not given in full)', 1.1),
  ('CC[C@H]1OC(=O)[C@H](C)[C@@H](O[C@H]2C[C@@](C)(OC)[C@@H](O)[C@H](C)O2)[C@H](C)[C@@H](O[C@@H]2O[C@H](C)C[C@H](N(C)C)[C@H]2O)[C@](C)(O)C[C@@H](C)CN(C)[C@H](C)[C@@H](O)[C@]1(C)O', 1.27),
  ('CC(=O)[C@H]1CCC2C3C[C@H](C)C4=CC(=O)CC[C@]4(C)C3[C@@H](O)C[C@@]21C (stereo not given in full)', 1.13),
  ('CC(=O)OC/C=C(\C)CC/C=C(\C)CC/C=C(\C)CC/C=C(\C)CC/C=C(\C)CC/C=C(\C)CC/C=C(\C)CC/C=C(\C)CCC=C(C)C', 1.04),
  ('COc1c(N2CC[C@@H](CN)C2)c(F)cc2c(=O)c(C(=O)O)cn(CCc3ccccc3)c12', 1),
  ('Cc1ccc(S[C@H]2OC(COS(=O)(=O)c3ccc(C)cc3)C(O)[C@@H]3OC(=O)N[C@H]23)cc1 (stereo not given in full)', 1.02),
  ('Nc1nc2c(c(=O)[nH]1)NC(CNc1ccc(C(=O)NC(CCC(=O)O)C(=O)O)cc1)=CN2 (stereo not given)', 0.99),
  ('C[C@@H]1C[C@@H](O)[C@@H](O)CO1', 0.96),
  ('NCCCCNCCCN', 0.87),
  ('CC(C)[N+]1(C)C2CC[C@@H]1CC(OC(=O)C(CO)c1ccccc1)C2 (stereo not given in full)', 0.82),
  ('CN(C)CCCC1(c2ccc(F)cc2)OCc2cc(C#N)ccc21 (stereo not given)', 1.31),
  ('CC(=O)Nc1ccc(S(=O)(=O)Nc2onc(C)c2C)cc1', 0.93),
  ('C=CCS(=O)C[C@H](N)C(=O)O (stereo not given in full)', 0.98),
  ('CC(=O)NC(CS)C(=O)O (stereo not given)', 1.36);

* * *

Test: growth inhibition of DIPG glioma cells, dose response, cell-based, SU-DIPG-XIII, MIPE5.0, CellTiter-Glo, qHTS (AID 1347064);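 for AC50: cells exposed to compound for 48 hours before the viability read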
Settings: SU-DIPG-XIII viability, CellTiter-Glo ATP luminescence
Results filed as inconclusive are left out. Activity calls are given as the source filed them. The limit is not given here; nearly all actives have AC50 up to about 23 µM. Numbered stars: 1 amine (or outer) side, 2 acyl side, 3 side chain; on linkers, the order of the positions; unused ones are H or OH. Bridge positions count the residues as written; N and C are the ends. Square brackets hold non-standard residues; d marks the D form. Peptide text beside a SMILES is read from it. I, II: the chains in the order shown. Actinocin(9to1) = Cc1c2oc3c(C)ccc(C(=O)[*:1])c3nc-2c(C(=O)[*:2])c(N)c1=O; NMeV = CN[CH](C(=O)O)C(C)C; Sar = CNCC(=O)O
property-measured: AC50

INSERT INTO assay_data (molecule, property_measured, result) VALUES
  ('COc1c(N2C[C@@H]3CCCN[C@@H]3C2)c(F)cc2c(=O)c(C(=O)O)cn(C3CC3)c12', 'AC50', 'inactive'),
  ('CCC(C)N(C)C(=O)c1cc2ccccc2c(-c2ccccc2Cl)n1 (configuration not stated)', 'AC50', 'inactive'),
  ('CC(C)C(C)/C=C/C(C)C1CCC2C3=CC=C4CC(O)CCC4(C)C3CCC21C (configuration not stated)', 'AC50', 'inactive'),
  ('COc1ccc([C@@H]2CNC(=O)C2)cc1OC1CCCC1', 'AC50', 'inactive'),
  ('Cc1coc2c1C(=O)C(=O)c1c-2ccc2c1CCCC2(C)C', 'AC50', '5.9 µM (active)'),
  ('CN1C(=O)C(Cc2c[nH]c3ccccc23)NC1=S (configuration not stated)', 'AC50', 'inactive'),
  ('COc1cc([C@@H]2c3cc4c(cc3[C@@H](O[C@@H]3O[C@@H]5CO[C@@H](C)O[C@H]5[C@H](O)[C@H]3O)[C@H]3COC(=O)[C@H]23)OCO4)cc(OC)c1O', 'AC50', 'inactive'),
  ('CC(=O)O[C@H]1C(=O)[C@@]2(C)C([C@H](OC(=O)c3ccccc3)[C@]3(O)C[C@H](OC(=O)[C@H](O)[C@@H](NC(=O)c4ccccc4)c4ccccc4)C(C)=C1C3(C)C)[C@]1(OC(C)=O)CO[C@@H]1C[C@@H]2O (some centres not stated)', 'AC50', 'inactive'),
  ('C[C@H]1COC2=C1C(=O)C(=O)c1c2ccc2c1CCCC2(C)C', 'AC50', '18.6 µM (active)'),
  ('NC(=O)Nc1sc(-c2ccc(F)cc2)cc1C(N)=O', 'AC50', '20.9 µM (active)'),
  ('COC1CCC(C(=O)c2ccc3nc4c(cc3c2)CCCO4)CC1 (configuration not stated)', 'AC50', 'inactive'),
  ('Cc1cc2c(s1)Nc1ccccc1N=C2N1CCN(C)CC1', 'AC50', 'inactive'),
  ('O=C1C(Cl)=C(NCCN2CCOCC2)C(=O)c2ncccc21', 'AC50', '3.32 µM (active)'),
  ('COC1=C(OC)C(=O)C(C/C=C(\C)CC/C=C(\C)CC/C=C(\C)CC/C=C(/C)CC/C=C(\C)CC/C=C(\C)CC/C=C(\C)CC/C=C(\C)CC/C=C(\C)CCC=C(C)C)=C(C)C1=O', 'AC50', 'inactive'),
  ('CC1CNc2c(cccc2S(=O)(=O)N[C@@H](CCCN=C(N)N)C(=O)N2CC[C@@H](C)C[C@@H]2C(=O)O)C1 (some centres not stated)', 'AC50', 'inactive'),
  ('O=Nc1c(-c2c(O)[nH]c3cc(Br)ccc23)[nH]c2ccccc12', 'AC50', '14.8 µM (active)'),
  ('Oc1cc(O)cc(/C=C/c2ccc(O)c(O)c2)c1', 'AC50', '20.9 µM (active)'),
  ('CC(Oc1ccc(O)cc1)(P(=O)(O)O)P(=O)(O)O', 'AC50', 'inactive'),
  ('O=C(O)CCc1ccc(NCc2cccc(Oc3ccccc3)c2)cc1', 'AC50', 'inactive'),
  ('CNC(=O)[C@H]1O[C@@H](n2cnc3c(NCc4cccc(I)c4)nc(Cl)nc32)[C@H](O)[C@@H]1O', 'AC50', '16.6 µM (active)'),
  ('O=C1NC(=O)C(c2ccccc2[N+](=O)[O-])=C1Nc1ccc(O)c(Cl)c1', 'AC50', 'inactive'),
  ('CN1[C@@H]2CCC[C@H]1CC(NC(=O)c1nn(C)c3ccccc13)C2 (some centres not stated)', 'AC50', 'inactive'),
  ('COc1cccc(-c2cc(=O)c3ccccc3o2)c1N', 'AC50', 'inactive'),
  ('Clc1ccc(-c2nc3sccn3c2/C=N/OCc2ccc(Cl)c(Cl)c2)cc1', 'AC50', '20.9 µM (active)'),
  ('CCOC(=O)C1=C(C)NC(=S)NC1c1cccc(O)c1 (configuration not stated)', 'AC50', 'inactive'),
  ('Cc1cnc(C(=O)NCCc2ccc(S(=O)(=O)NC(=O)NC3CCCCC3)cc2)cn1', 'AC50', 'inactive'),
  ('Cc1c2oc3c(C)ccc(C(=O)NC4C(=O)NC(C(C)C)C(=O)N5CCCC5C(=O)N(C)CC(=O)N(C)C(C(C)C)C(=O)OC4C)c3nc-2c(C(=O)NC2C(=O)NC(C(C)C)C(=O)N3CCCC3C(=O)N(C)CC(=O)N(C)C(C(C)C)C(=O)OC2C)c(N)c1=O (configuration not stated) (I: TVP[Sar][NMeV] / II: TVP[Sar][NMeV]; ester I:1-I:C, II:1-II:C; linker I:N-II:N via Actinocin(9to1); configuration not given here)', 'AC50', '0.00362 µM (active)'),
  ('Nc1ccn([C@@H]2CS[C@H](CO)O2)c(=O)n1', 'AC50', 'inactive'),
  ('N[C@H](CSC(c1ccccc1)(c1ccccc1)c1ccccc1)C(=O)O', 'AC50', 'inactive'),
  ('O=C(O)C1CCCN(CCC=C(c2ccccc2)c2ccccc2)C1 (configuration not stated)', 'AC50', 'inactive'),
  ('FC(F)(F)c1ccc(/C=C/c2nc(COc3ccc(CCCCn4ccnn4)cc3)co2)cc1', 'AC50', 'inactive'),
  ('COc1cc(C[C@@H](CO)[C@H](CO)Cc2ccc(O)c(OC)c2)ccc1O', 'AC50', 'inactive'),
  ('CC(C)NCC(O)c1ccc(NS(C)(=O)=O)cc1 (configuration not stated)', 'AC50', 'inactive'),
  ('CCOc1ccc(Nc2nc(-c3c(C)nc4ccccn34)cs2)cc1', 'AC50', '0.059 µM (active)'),
  ('N#C[C@@H]1C[C@@H]2C[C@@H]2N1C(=O)[C@@H](N)C12CC3CC(CC(O)(C3)C1)C2', 'AC50', 'inactive'),
  ('CC(C)[C@H](CO)Nc1nc(Nc2cccc(Cl)c2)c2ncn(C(C)C)c2n1', 'AC50', '14.8 µM (active)'),
  ('O=c1[nH]c(=O)n(C2CCCO2)cc1F (configuration not stated)', 'AC50', 'inactive');
